molecular target: Amyloid-beta precursor protein (Homo sapiens); assay: Inhibition of self-mediated amyloid beta (1 to 42) (unknown origin) aggregation at 25 uM incubated for 48 hrs by thioflavin-T fluorescence assay relative to control
Sequence (P05067 whole entry): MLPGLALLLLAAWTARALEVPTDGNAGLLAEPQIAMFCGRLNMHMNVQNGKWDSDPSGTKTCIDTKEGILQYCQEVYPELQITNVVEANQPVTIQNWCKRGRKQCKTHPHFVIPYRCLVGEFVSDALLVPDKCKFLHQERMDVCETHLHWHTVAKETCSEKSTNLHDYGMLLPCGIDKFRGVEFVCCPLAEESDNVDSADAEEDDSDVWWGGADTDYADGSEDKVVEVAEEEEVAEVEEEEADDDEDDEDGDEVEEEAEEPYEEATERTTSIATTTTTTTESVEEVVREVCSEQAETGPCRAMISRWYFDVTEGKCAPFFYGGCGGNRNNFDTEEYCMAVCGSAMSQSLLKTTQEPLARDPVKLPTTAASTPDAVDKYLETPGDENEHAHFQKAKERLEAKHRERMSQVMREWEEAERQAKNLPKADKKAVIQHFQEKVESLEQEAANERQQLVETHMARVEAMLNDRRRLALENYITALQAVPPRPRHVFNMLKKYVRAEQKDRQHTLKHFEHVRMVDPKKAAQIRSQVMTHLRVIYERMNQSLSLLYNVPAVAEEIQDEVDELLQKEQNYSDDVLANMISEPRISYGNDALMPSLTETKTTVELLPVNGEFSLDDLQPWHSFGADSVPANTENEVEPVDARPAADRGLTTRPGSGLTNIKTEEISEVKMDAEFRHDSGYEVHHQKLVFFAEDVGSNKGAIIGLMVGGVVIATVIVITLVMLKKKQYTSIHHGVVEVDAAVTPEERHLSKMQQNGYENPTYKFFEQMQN
# if value of inhibition reaches 50%, tag MET; if it stays below, tag NOT MET

{"columns": ["Molecular String", "Class Name"],
 "data": [
  ["O=C(CN1CCN(c2ccnc3cc(Cl)ccc23)CC1)Nc1n[nH]c2ncccc12", "NOT MET"],
  ["N#Cc1cccnc1N1CCN(CC(=O)Nc2n[nH]c3ncccc23)CC1", "NOT MET"],
  ["CCOC(=O)c1cnc2ccccc2c1N1CCN(CC(=O)Nc2n[nH]c3ncccc23)CC1", "MET"],
  ["CCOC(=O)c1cnc2ccc(C)cc2c1N1CCN(CC(=O)Nc2n[nH]c3ncccc23)CC1", "MET"],
  ["O=C(CN1CCN(CC(=O)Nc2n[nH]c3ncccc23)CC1)Nc1n[nH]c2ncccc12", "MET"],
  ["Cc1cc(N2CCN(CC(=O)Nc3n[nH]c4ncccc34)CC2)n2ncnc2n1", "NOT MET"]
]}

Q: # check: inhibition of O=C(CN1CCOCC1)Nc1n[nH]c2ncccc12 is greater than or equal to 50%
A: MET

----------
assay: Selectivity index, ratio of IC50 for equine serum BChE to IC50 for electric eel AChE
Observation Type: Ratio IC50

Examples from the recorded data:
{"columns": ["Molecular String", "Ratio IC50"],
 "data": [
  ["O=C(CN1CCN(c2ccnc3cc(Cl)ccc23)CC1)Nc1n[nH]c2ncccc12", "> 8330"],
  ["CN1CCN(CC(=O)Nc2n[nH]c3ncccc23)CC1", "> 20400"],
  ["Cc1cc(N2CCN(CC(=O)Nc3n[nH]c4ncccc34)CC2)n2ncnc2n1", "> 4550"],
  ["O=C(CN1CCCCC1)Nc1n[nH]c2ncccc12", "> 20800"],
  ["O=C(CN1CCOCC1)Nc1n[nH]c2ncccc12", "> 885"]
]}

// next item, Ratio IC50 requested
Q: Ratio IC50 lookup needed for O=C(CN1CCN(CC(=O)Nc2n[nH]c3ncccc23)CC1)Nc1n[nH]c2ncccc12 , thanks.
A: > 2220

----------
Listed molecules paired with reported Activity
target: UniProtKB P05067; assay: Disaggregation of self-induced amyloid beta (1 to 42) (unknown origin) preformed fibrils measured after 24 hrs by ThT fluorescence assay relative to control
Answer with a number only, understood to be in %.

Examples from the recorded data:
{"columns": ["Molecular String", "System Under Test", "Observation Type", "Unit String", "Measured Number"],
 "data": [
  ["O=C(CN1CCN(CC(=O)Nc2n[nH]c3ncccc23)CC1)Nc1n[nH]c2ncccc12", "UniProtKB P05067", "Activity", "%", 53.8],
  ["CCOC(=O)c1cnc2ccccc2c1N1CCN(CC(=O)Nc2n[nH]c3ncccc23)CC1", "UniProtKB P05067", "Activity", "%", 61.6],
  ["O=C(CN1CCOCC1)Nc1n[nH]c2ncccc12", "UniProtKB P05067", "Activity", "%", 47.4]
]}

// next item, Activity requested
Q: Activity lookup needed for CCOC(=O)c1cnc2ccc(C)cc2c1N1CCN(CC(=O)Nc2n[nH]c3ncccc23)CC1 , thanks.
A: 52.1

----------
Quick record of log10(IC50) values for Acetylcholinesterase (Electrophorus electricus, UniProt O42275).
Hi team, quick reminder: these entries are log10 of IC50 (nM).

Examples from the recorded data:
{"columns": ["Molecular String", "log10(IC50)"],
 "data": [
  ["CN1CCN(CC(=O)Nc2n[nH]c3ncccc23)CC1", 0.69],
  ["O=C(CN1CCN(c2ccnc3cc(Cl)ccc23)CC1)Nc1n[nH]c2ncccc12", 1.08],
  ["O=C(CN1CCN(CC(=O)Nc2n[nH]c3ncccc23)CC1)Nc1n[nH]c2ncccc12", 1.65]
]}

Q: log10(IC50) lookup needed for O=C(CN1CCOCC1)Nc1n[nH]c2ncccc12 , thanks.
A: 2.05

Q: Moving on to the next molecule: Cc1cc(N2CCN(CC(=O)Nc3n[nH]c4ncccc34)CC2)n2ncnc2n1
A: 1.34

Q: Moving on to the next molecule: O=C(CN1CCCCC1)Nc1n[nH]c2ncccc12
A: 0.68

----------
biological target: Acetylcholinesterase (Electrophorus electricus); assay: Inhibition of electric eel AChE using acetylthiocholine iodide as substrate preincubated for 5 mins followed by substrate addition measured after 5 mins by Ellman's method
Sequence (O42275 whole entry): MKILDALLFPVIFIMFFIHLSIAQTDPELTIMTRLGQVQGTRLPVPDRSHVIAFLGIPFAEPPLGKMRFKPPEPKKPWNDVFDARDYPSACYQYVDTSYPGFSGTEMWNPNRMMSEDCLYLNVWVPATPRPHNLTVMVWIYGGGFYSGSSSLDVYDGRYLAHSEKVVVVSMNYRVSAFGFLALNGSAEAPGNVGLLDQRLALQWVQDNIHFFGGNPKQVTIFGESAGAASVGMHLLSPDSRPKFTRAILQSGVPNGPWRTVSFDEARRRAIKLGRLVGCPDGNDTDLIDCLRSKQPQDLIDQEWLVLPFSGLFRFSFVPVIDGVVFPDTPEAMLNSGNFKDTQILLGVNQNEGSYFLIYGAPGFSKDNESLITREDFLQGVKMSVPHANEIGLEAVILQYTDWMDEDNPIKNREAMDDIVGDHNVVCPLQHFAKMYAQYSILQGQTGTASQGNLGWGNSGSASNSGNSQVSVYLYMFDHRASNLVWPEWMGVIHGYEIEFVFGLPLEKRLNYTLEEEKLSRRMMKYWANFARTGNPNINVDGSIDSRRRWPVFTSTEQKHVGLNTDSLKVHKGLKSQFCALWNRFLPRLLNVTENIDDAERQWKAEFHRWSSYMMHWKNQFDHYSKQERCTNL
pIC50: −log10 of the molar value.
Listed compounds paired with reported pIC50

Q: pIC50 lookup needed for CCOC(=O)c1cnc2ccccc2c1N1CCN(CC(=O)Nc2n[nH]c3ncccc23)CC1 , thanks.
A: < 4.00

Q: Moving on to the next compound: N#Cc1cccnc1N1CCN(CC(=O)Nc2n[nH]c3ncccc23)CC1
A: < 4.00

Q: Moving on to the next compound: CCOC(=O)c1cnc2ccc(C)cc2c1N1CCN(CC(=O)Nc2n[nH]c3ncccc23)CC1
A: < 4.00

Attribution: ChEMBL document CHEMBL4393694
